Tested on: MAP kinase cascade activation
Test: Reporter activity reflecting MAP kinase cascade activation, corrected using an internal control (Elk1-GAL4 luciferase reporter in 293-EBNA cells)
Type: cell-based, human
Conditions: 50 ng/well expression plasmid; 293-EBNA cells; 24 hours
Assay Endpoint: Reporter activity corrected with internal control, as a factor of null vector (S/B value)
Answer with a number only.

Some solved entries appear below for comparison.
26 (protein, listed as Homo sapiens) MALALAALAAVEPACGSRYQQLQNEEESGEPEQAAGDAPPPYSSISAESAAYFDYKDESGFPKPPSYNVATTLPSYDEAERTKAEATIPLVPGRDEDFVGRDDFDDADQLRIGNDGIFMLTFFMAFLFNWIGFFLSFCLTTSAAGRYGAISGFGLSLIKWILIVRFSTYFPGYFDGQYWLWWVFLVLGFLLFLRGFINYAKVRKMPETFSNLPRTRVLFIY    3.2
18 (protein, listed as Homo sapiens) MPVQLSEHPEWNESMHSLRISVGGLPVLASMTKAADPRFRPRWKVILTFFVGAAILWLLCSHRPAPGRPPTHNAHNWRLGQAPANWYNDTYPLSPPQRTPAGIRYRIAVIADLDTESRAQEENTWFSYLKKGYLTLSDSGDKVAVEWDKDHGVLESHLAEKGRGMELSDLIVFNGKLYSVDDRTGVVYQIEGSKAVPWVILSDGDGTVEKGFKAEWLAVREIVRKRWRLVKQVSHVGVLGQWIQR    2.3
68 (protein, listed as Homo sapiens) MLKEEQEVAMLGVPHNPAPPMSTVIHIRSETSVPDHVVWSLFNTLSMNTCCLGFIAFAYSVKSRDRKMVGDVTGAQAYASTAKCLNIWALILGIFMTILLIIIPVLVVQAQR    4.0
146 (protein, listed as Homo sapiens) MNHIVQTFSPVNSGQPPNYEMLKEEQEVAMLGAPHNPAPPTSTVIHIRSETSVPDHVVWSLFNTLFMNTCCLGFIAFAYSVKSRDRKMVGDVTGAQAYASTAKCLNIWALILGIFMTILLVIIPVLVVQAQR    5.6
16 (protein, listed as Homo sapiens) MSSLGGGSQDAGGSSSSSTNGSGGSGSSGPKAGAADKSAVVAAAAPASVADDTPPPERRNKSGIISEPLNKSLRRSRPLSHYSSFGSSGGSGGGSMMGGESADKATAAAAAASLLANGHDLAAAMAVDKSNPTSKHKSGAVASLLSKAERATELAAEGQLTLQQFAQSTEMLKRVVQEHLPLMSEAGAGLPDMEAVAGAEALNGQSDFPYLGAFPINPGLFIMTPAGVFLAESALHMAGLAEYPMQGELASAISSGKKKRKRCGMCAPCRRRINCEQCSSCRNRKTGHQICKFRKCEELKKKPSAALEKVMLPTGAAFRWFQ    8.4

Attention now shifts to the item below.
[Q] Request the reported Reporter activity corrected with internal control, as a factor of null vector (S/B value) associated with 44 (protein, listed as Homo sapiens) MEDEEVAESWEEAADSGEIDRRLEKKLKITQKESRKSKSPPKVPIVIQDDSLPAGPPPQIRILKRPTSNGVVSSPNSTSRPTLPVKSLAQREAEYAEARKRILGSASPEEEQEKPILDRPTRISQPEDSRQPNNVIRQPLGPDGSQGFKQRR
[A] 55.4
